Tested on: MRC-5 (lung)
Assay: Growth inhibition assay
Assay type: cell-based
Conditions: Homo sapiens, MRC5, 72 h, read-out: IC50, growth inhibition of cultured cells
Recorded metric: pIC50
Give bare numbers, as −log10 of the molar value.

Determine from records and report pIC50 for `CS(=O)(=O)CCNCc1ccc(-c2ccc3ncnc(Nc4ccc(OCc5cccc(F)c5)c(Cl)c4)c3c2)o1`
5.04
